Recorded values, source patent US11098072B2.

System: P. falciparum
Assay: Growth inhibition against P. falciparum
Format: cell-based
Conditions: Plasmodium falciparum, read-out: Pf IC50
Assignment: determine reported pIC50 for the given compounds.
Scale for pIC50: -log10 of concentration given in mol/L; no unit attached.

For record COC(=O)N(O)C/C=C/P(=O)(O)O [Compound 12c] the listed pIC50 is 4.54

Lab note: O=CN(O)C/C=C/P(=O)([O-])O.[Na+] [Compound 12a] gave pIC50 of 7.72

====

Target: P. falciparum DXR (Plasmodium falciparum, UniProt Q8IKG4)
Sequence (Q8IKG4 73-488): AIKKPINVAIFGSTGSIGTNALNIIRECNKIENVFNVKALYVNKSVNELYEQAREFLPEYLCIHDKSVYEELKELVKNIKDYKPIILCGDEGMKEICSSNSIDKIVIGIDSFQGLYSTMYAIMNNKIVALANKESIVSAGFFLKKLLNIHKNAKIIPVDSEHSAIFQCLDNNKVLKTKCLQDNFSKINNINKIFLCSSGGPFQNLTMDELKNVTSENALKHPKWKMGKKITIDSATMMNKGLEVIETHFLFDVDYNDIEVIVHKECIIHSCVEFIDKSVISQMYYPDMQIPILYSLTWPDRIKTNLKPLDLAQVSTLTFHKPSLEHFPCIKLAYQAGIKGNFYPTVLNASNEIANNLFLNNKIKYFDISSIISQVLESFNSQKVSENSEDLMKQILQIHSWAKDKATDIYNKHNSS
Test: Inhibition of P. falciparum DXR enzyme
Type: biochemical
Conditions: Table 2, phosphonic acid salts; read-out: Pf DXR IC50
property_label: IC50 (µM)
Just the number please, in µM, no unit attached.

Note to self: IC50 of CC(=O)N(C/C=C/P(=O)(O)O)OCc1ccc(-c2ccccc2)cc1 [Compound 16g] with P. falciparum DXR (Plasmodium falciparum, UniProt Q8IKG4) was 4.53

The compound CC(=O)N(C/C=C/P(=O)([O-])O)OCc1ccc(C(C)C)cc1.[Na+] [Compound 16e] , when measured on P. falciparum DXR (Plasmodium falciparum, UniProt Q8IKG4), yielded IC50 of 2.11

Tested on P. falciparum DXR (Plasmodium falciparum, UniProt Q8IKG4), the item COC(=O)N(O)C/C=C/P(=O)(O)O [Compound 12c] showed IC50 equal to 14.5

Kindly note: P. falciparum DXR (Plasmodium falciparum, UniProt Q8IKG4), CC(=O)N(C/C=C/P(=O)(O)O)OC(C)c1ccccc1 (stereo not shown) [Compound 16d] , IC50 value reported: 2.54

====

Test: Metabolic stability in mouse liver microsomes
Type: in vitro ADME
Settings: pH 7.4; mouse liver microsomes, compound 1 μM, 37° C.; read-out: Metabolic stability MLM (t1/2)
property_label: half-life at 1 μM

Record O=CN(O)C/C=C/P(=O)([O-])O.[Na+] [Compound 12a] . Reported half-life at 1 μM: > 1 h

====

Kindly state half-life at 1 μM for each of the entries shown.
Assay: in vitro
Type: in vitro ADME
Details: mouse plasma, compound 1 μM, 37° C.; read-out: Plasma stability (t1/2)

half-life at 1 μM measured on O=CN(O)C/C=C/P(=O)([O-])O.[Na+] [Compound 12a] = > 2 h

Entry under test: CC(C)(C)C(=O)OCOP(=O)(/C=C/CN(O)C=O)OCOC(=O)C(C)(C)C [Compound 18a] . Its half-life at 1 μM was < 0.0833 h

====

System: P. falciparum had1 mutant strain
Assay type: cell-based
Settings: in words
property_label: resistance of had1 parasites compared with wild-type

{"compound": "CC(=O)N(C/C=C/P(=O)([O-])O)OCc1ccc(C(C)C)cc1.[Na+] [Compound 16e]", "test_result": "more resistant"}
{"compound": "CC(C)(C)C(=O)OCOP(=O)(/C=C/CN(O)C(=O)c1ccccc1)OCOC(=O)C(C)(C)C [Compound 33a]", "test_result": "more resistant"}
{"compound": "O=C(c1ccccc1)N(O)C/C=C/P(=O)([O-])O.[Na+] [Compound 32a]", "test_result": "more resistant"}

====

Target: P. falciparum DXR (Plasmodium falciparum)
Test: Inhibition of P. falciparum DXR enzyme
Format: biochemical
Conditions: Table 6, N-acyl analogs; read-out: Pf Dxr IC50
Would you kindly list IC50 for each of these compounds?
# unit: nM | format: bare number

Form field, IC50 with P. falciparum DXR (Plasmodium falciparum), item O=C(CCc1ccccc1)N(O)C/C=C/P(=O)([O-])O.[Na+] [Compound 32c] : 1340

The value of IC50 recorded for O=C(Cc1ccccc1)N(O)C/C=C/P(=O)([O-])O.[Na+] [Compound 32b] when tested on P. falciparum DXR (Plasmodium falciparum) reads 170

Value (IC50, P. falciparum DXR (Plasmodium falciparum)) for record O=C(CCCc1ccccc1)N(O)C/C=C/P(=O)([O-])O.[Na+] [Compound 32d] = 898
